Data origin, for the record: patent US7078382B1

- system-tested: KDR receptor (Homo sapiens, UniProt P35968)
- Sequence (P35968 20-327 limits assumed): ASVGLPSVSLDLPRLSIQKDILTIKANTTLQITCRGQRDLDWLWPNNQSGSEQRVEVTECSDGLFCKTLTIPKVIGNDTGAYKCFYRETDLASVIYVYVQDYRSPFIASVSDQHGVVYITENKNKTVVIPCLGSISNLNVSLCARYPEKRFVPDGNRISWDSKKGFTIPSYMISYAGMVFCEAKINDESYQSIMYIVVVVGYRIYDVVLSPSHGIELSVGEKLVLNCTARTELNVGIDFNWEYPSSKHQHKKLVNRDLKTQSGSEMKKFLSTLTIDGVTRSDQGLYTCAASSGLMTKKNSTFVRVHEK
- measurement-protocol: KDR receptor binding ELISA (inhibition of biotinylated native VEGF (8-109) binding)
- protocol-conditions: second figure of the cell, ratio to native VEGF (8-109)
measurement-label: Relative Binding Affinity KDR Receptor (nM/1)

LK-VRB-7s*: VEGF (1-109) variant, M18E/D63S/G65M/L66R (protein) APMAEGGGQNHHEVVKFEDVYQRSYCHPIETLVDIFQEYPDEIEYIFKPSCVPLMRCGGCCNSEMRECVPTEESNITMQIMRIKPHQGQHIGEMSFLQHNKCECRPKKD ... 1
LK-VRB-4s: VEGF (1-109) variant, F17I/M18E/Y21F/Q22E/Y25I (protein) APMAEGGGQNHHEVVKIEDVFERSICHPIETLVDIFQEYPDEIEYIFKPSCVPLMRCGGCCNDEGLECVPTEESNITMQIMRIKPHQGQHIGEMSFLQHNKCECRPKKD ... 1
